Listed compounds paired with reported EC50
- Test system: α2AAR (α2A-adrenergic receptor) (Homo sapiens, UniProt P08913)
- Construct: expressed in transfected cells; host or cells: HEK293
- Sequence (P08913 whole entry, species assumed): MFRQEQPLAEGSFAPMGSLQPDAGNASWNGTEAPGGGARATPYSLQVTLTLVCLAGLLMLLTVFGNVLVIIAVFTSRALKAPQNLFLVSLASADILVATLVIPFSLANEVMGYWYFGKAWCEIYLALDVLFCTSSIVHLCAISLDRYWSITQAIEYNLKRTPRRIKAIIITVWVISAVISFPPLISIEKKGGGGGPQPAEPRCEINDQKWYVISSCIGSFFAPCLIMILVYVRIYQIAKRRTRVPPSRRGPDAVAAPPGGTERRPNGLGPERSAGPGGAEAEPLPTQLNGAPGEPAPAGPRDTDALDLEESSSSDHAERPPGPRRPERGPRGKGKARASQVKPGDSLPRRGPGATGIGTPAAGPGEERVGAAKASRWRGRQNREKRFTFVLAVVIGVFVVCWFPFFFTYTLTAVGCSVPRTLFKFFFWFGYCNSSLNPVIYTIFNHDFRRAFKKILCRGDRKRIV
- Test summary: α2AAR FLIPR assay (agonist activity)
- Assay type: cell-based
- Reported conditions: FLIPR, α2AAR cell line hosted in HEK293 cells; read-out: α2A agonist activity (EC50)

>  <Compound>
Cc1cccc(C(Cc2ccc(S(C)(=O)=O)cc2)c2c[nH]cn2)c1C (stereo not shown)

>  <EC50>
< 10 nM

$$$$

## Task Could you share which EC50 value was measured for Cc1cscc1C(c1cccc(NS(C)(=O)=O)c1)c1c[nH]cn1 (stereo not shown) ?
## Result 50 to 250 nM

## Task Could you share which EC50 value was measured for Cc1cccc(C(Cc2ccc(C(=O)NCCC(=O)O)cc2)c2c[nH]cn2)c1C (stereo not shown) ?
## Result 10 to 50 nM

## Task Could you share which EC50 value was measured for CONC(=O)c1cccc(C(c2c[nH]cn2)c2cccc(Cl)c2Cl)c1 (stereo not shown) ?
## Result 50 to 250 nM

###

Listed compounds paired with reported pKi
- Test system: α2AAR (Homo sapiens, UniProt P08913)
- Construct: host or cells: HEK293 (membranes)
- Sequence (P08913 whole entry, species assumed): as above
- Test summary: α2AAR binding assay ([3H]-RX 821002 radioligand)
- Reported conditions: [3H]-RX 821002 0.5 nM, HEK293 membranes; read-out: α2A affinity (Ki)
pKi: −log10 of the molar value.

// below: answered compounds
>  <Compound>
Cc1cccc(C(c2cccc(NC(=O)NC3CCOCC3)c2)c2c[nH]cn2)c1C (stereo not shown) [compound 111]

>  <Test system>
α2AAR (Homo sapiens, UniProt P08913)

>  <pKi>
7.30 to 8.00

$$$$
>  <Compound>
Cc1cccc(C(Cc2ccc(C(=O)NC3CCOCC3)c(F)c2)c2c[nH]cn2)c1C (stereo not shown) [compound 187]

>  <Test system>
α2AAR (Homo sapiens, UniProt P08913)

>  <pKi>
> 8.00

$$$$
>  <Compound>
Cc1cccc(C(c2cccc(OCCNS(C)(=O)=O)c2)c2c[nH]cn2)c1C (stereo not shown) [compound 22]

>  <Test system>
α2AAR (Homo sapiens, UniProt P08913)

>  <pKi>
7.30 to 8.00

$$$$
>  <Compound>
Cc1cccc(C(c2cccc(S(=O)(=O)NCC3CCOCC3)c2)c2c[nH]cn2)c1C (stereo not shown) [compound 105]

>  <Test system>
α2AAR (Homo sapiens, UniProt P08913)

>  <pKi>
> 8.00

$$$$
>  <Compound>
Cc1cccc(C(c2cccc(C(=O)NC3CCOCC3)c2)c2c[nH]cn2)c1C (single isomer, unassigned) [121-B]

>  <Test system>
α2AAR (Homo sapiens, UniProt P08913)

>  <pKi>
> 8.00

$$$$

## Task Could you share which pKi value was measured for Cc1cccc(C(c2cccc(NC(=O)c3cn[nH]c3)c2)c2c[nH]cn2)c1C (stereo not shown) [compound 87] ?
## Result 6.60 to 7.30

## Task Could you share which pKi value was measured for Cc1cccc(C(c2c[nH]cn2)c2cccc(-c3cnnn3C)c2F)c1C (stereo not shown) [compound 201] ?
## Result > 8.00

## Task Could you share which pKi value was measured for Cc1cccc(C(c2cccc(NC(=O)CCN3CCNCC3)c2)c2c[nH]cn2)c1C (stereo not shown) [compound 90] ?
## Result 6.60 to 7.30

## Task Could you share which pKi value was measured for CNS(=O)(=O)c1ccc(CC(Oc2c(Cl)cccc2Cl)C2=NCCN2)cc1 (stereo not shown) [compound 519] ?
## Result 7.30 to 8.00

## Task Could you share which pKi value was measured for CCS(=O)(=O)Nc1cccc(C(c2c[nH]cn2)c2cccc(C)c2C)c1 (stereo not shown) [compound 67] ?
## Result 7.30 to 8.00

## Task Could you share which pKi value was measured for Cc1cccc(C(Cc2ccc(C(C)(C)C(=O)O)cc2)c2c[nH]cn2)c1C (stereo not shown) [compound 251] ?
## Result 6.60 to 7.30

## Task Could you share which pKi value was measured for CONC(=O)c1cccc(C(c2ccccc2)c2c[nH]cn2)c1 (stereo not shown) [compound 49] ?
## Result < 6.00

## Task Could you share which pKi value was measured for Cc1cccc(C(c2cccc(C(=O)NC3CCOCC3)c2)c2c[nH]cn2)c1C (racemic) [compound 121] ?
## Result 7.30 to 8.00

## Task Could you share which pKi value was measured for Cc1cccc(C(c2cccc(NC(=O)CC#N)c2)c2c[nH]cn2)c1C (single isomer, unassigned) [10-B] ?
## Result 7.30 to 8.00

## Task Could you share which pKi value was measured for COc1cc(CC(c2c[nH]cn2)c2cccc(C)c2C)cc(OC)c1OC (stereo not shown) [compound 226] ?
## Result > 8.00

## Task Could you share which pKi value was measured for Cc1cccc(C(c2c[nH]cn2)N2CCc3ccc(NS(C)(=O)=O)cc32)c1C (stereo not shown) [compound 106] ?
## Result 6.60 to 7.30

## Task Could you share which pKi value was measured for Cc1cccc(C(Cc2ccc(-c3cnnn3C)cc2)c2c[nH]cn2)c1C (stereo not shown) [compound 209] ?
## Result > 8.00

## Task Could you share which pKi value was measured for Cc1cccc(C(Cc2ccc(NC(=S)C3CCOCC3)cc2)c2c[nH]cn2)c1C (stereo not shown) [compound 212] ?
## Result > 8.00

## Task Could you share which pKi value was measured for COc1ccccc1C(NC1=NCCS1)c1cccc(NC(=O)CC2CCOCC2)c1 (stereo not shown) [compound 514] ?
## Result 6.60 to 7.30
